assay: Quantitative High-Throughput drug screen in 47 multiple myeloma cell lines against the NCATS MIPE library collection: KMM1_JCRB cell viability assay (AID 1918960); conditions: KMM1 myeloma viability, CellTiter-Glo ATP luminescence, 48 h; series mostly up to 45.8 µM; also: nearly all actives have a fitted effect of over 30% in size
Results filed as inconclusive are left out. Active and inactive are the calls of the source. Calls follow the shape of the dose curve; as a rule, active = well fitted cell-killing curve with a large enough effect; inconclusive = small, poorly fitted or top-dose-only effect, or effect the other way; inactive = no such curve, though single readings can be large or run the other way.
Labels: active, inactive

Compound | Category label
Cc1cc(O)c2c(c1)C(=O)c1cccc(O)c1C2=O | inactive
CN1CCCN(C(=O)c2cccc(-c3ccc(C=C4C(=O)Nc5ccc(Cl)cc54)o3)c2)CC1 | active
CCOC(=O)C=C[C@H](C[C@@H]1CCNC1=O)NC(=O)[C@@H](CC(=O)[C@@H](NC(=O)c1cc(C)on1)C(C)C)Cc1ccc(F)cc1 | inactive
CC(=O)SCC(Cc1ccccc1)C(=O)NCC(=O)OCc1ccccc1 (centres undefined) | active
COc1cc2c(cc1OC)[C@@H]1C(=O)c3ccc4c(c3O[C@@H]1CO2)C=CC(C)(C)O4 | active
Cc1coc2c1C(=O)C(=O)c1c-2ccc2c(C)cccc12 | inactive
C=C1CCC2[C@](C)(CO)C(O)CC[C@]2(C)C1CC=C1C(=O)OCC1O (some centres undefined) | inactive
O=c1[nH]c(=O)n([C@H]2C[C@@H](O)[C@@H](CO)O2)cc1F | active
N#CC(=C(O)c1ccc(Cl)cc1Cl)c1nc2cc(Cl)ccc2c(=O)[nH]1 | inactive
